Exercise: for every item that follows, state its recorded protein stability index.
B1: PDS5B (parent)
chain: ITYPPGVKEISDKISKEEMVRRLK

Variants of: B1
experimentSummary: protein stability index of a GFP-peptide fusion (GPS, HEK-293T) (PSI 1-6); higher = more stable;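 also: lentivirally expressed fusions sorted by FACS into six bins by GFP to DsRed ratio, PSI derived from sequencing read proportions per bin multiplied by bin number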
conditionSet: c terminus: a fixed tail appended
Answers are plain numbers.

Summary for this variant, E9D : protein stability index is 3.98

Summary for this variant, K13A : protein stability index is 4.08

Summary for this variant, S15N : protein stability index is 3.89

Summary for this variant, V7G : protein stability index is 4.01

// each variant listed below needs its protein stability index
1. V7H
2. S11C
3. S11T
4. M19C
5. K13I
6. G6S

## Result
1: 4.04; 2: 3.94; 3: 4.08; 4: 4.1; 5: 4.1; 6: 3.96

// each variant listed below needs its protein stability index
1. T2G
2. S11N
3. L23H
4. I1L

## Result
1: 4.08; 2: 3.98; 3: 4.08; 4: 3.95
